experimental_system: Histone deacetylase 2 (Homo sapiens, UniProt Q92769)
Sequence (Q92769 whole entry): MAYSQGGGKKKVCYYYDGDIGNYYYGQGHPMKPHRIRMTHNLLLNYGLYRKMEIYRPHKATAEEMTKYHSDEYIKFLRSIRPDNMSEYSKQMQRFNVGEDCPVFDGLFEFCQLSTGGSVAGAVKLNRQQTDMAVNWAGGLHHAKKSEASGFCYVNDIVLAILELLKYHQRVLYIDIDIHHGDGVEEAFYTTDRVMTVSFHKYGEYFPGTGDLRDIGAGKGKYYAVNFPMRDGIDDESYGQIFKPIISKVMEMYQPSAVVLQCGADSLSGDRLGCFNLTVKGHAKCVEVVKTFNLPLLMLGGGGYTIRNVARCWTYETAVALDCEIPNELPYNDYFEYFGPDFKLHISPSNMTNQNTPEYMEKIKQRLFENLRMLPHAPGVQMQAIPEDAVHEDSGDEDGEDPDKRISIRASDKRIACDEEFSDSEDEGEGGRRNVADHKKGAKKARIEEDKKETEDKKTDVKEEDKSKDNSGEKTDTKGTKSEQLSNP
assay_details: Inhibition of human recombinant HDAC2 expressed in baculovirus by using Boc-L-Lys(Ac)-AMC as substrate measured after 24 hrs by fluorescence based analysis
measured_parameter: IC50

Here are 2 compounds together with their reported answers.
query_smiles | IC50
O=C(CCCCCCN(Cc1ccc(-c2ccccc2)s1)Cc1ccc(-c2ccccc2)s1)NO | 3 µM
O=C(CCCCCCN(Cc1cc2ccccc2[nH]1)Cc1cc2ccccc2[nH]1)NO | 3.7 µM

Task: Look up IC50 for this compound: `O=C(CCCCCCNCc1ccc(-c2ccccc2)s1)NO`
Result: 0.69 µM

* * *

experimental_system: UniProtKB O15379
assay_details: Inhibition of HDAC3 (unknown origin) at 10 uM
measured_parameter: IC50 (µM)
Respond with the bare value in µM.

Task: Look up IC50 for this molecule: `COc1ccc(C(=O)N[C@@H](Cc2c[nH]c3ccccc23)C(=O)Nc2ccc(C(=O)Nc3ccc(-c4cccs4)cc3N)cc2)cc1`
Result: 62.5

* * *

experimental_system: UniProt:Q92769
assay_details: Inhibition of HDAC2 (unknown origin) using acetylated 7-amino-4-methylcoumarin (AMC) as peptide substrate measured after 20 mins by fluorescence based analysis
measured_parameter: IC50

Task: Look up IC50 for this compound: `O=C(NNCCCC1CCCC1)c1ccc(Br)cc1`
Result: > 50 µM

Task: // repeat for `CCCCNNC(=O)c1ccccc1` and report
Result: > 50 µM

Task: // repeat for `O=C(NNCCCc1ccccc1)c1ccc(Br)cc1` and report
Result: > 50 µM

* * *

# IC50 annotations
experimental_system: Histone deacetylase 3 (Homo sapiens, UniProt O15379)
Sequence (O15379 whole entry): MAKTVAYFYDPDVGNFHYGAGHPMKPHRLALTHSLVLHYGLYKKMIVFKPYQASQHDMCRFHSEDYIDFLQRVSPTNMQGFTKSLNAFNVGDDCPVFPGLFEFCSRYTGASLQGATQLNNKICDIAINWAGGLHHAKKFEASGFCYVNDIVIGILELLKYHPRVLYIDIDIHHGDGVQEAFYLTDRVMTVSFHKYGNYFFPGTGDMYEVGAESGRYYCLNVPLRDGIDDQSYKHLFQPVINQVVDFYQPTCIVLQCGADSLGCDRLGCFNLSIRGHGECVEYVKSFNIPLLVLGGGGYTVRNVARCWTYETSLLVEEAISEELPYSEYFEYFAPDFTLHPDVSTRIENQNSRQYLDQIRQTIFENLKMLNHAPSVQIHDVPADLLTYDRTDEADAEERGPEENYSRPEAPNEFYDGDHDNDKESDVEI
assay_details: Inhibition of human HDAC3 using human HeLa cell nuclear extract at 1 uM measured after 60 mins by fluorescence assay
Assay type: subcellular, Nucleus
Respond with the bare value in nM.

Here are 3 compounds together with their reported answers.
query_smiles | experimental_system | IC50 (nM)
Cc1noc(C)c1-c1ccc2c(c1)c(Cc1ccccc1)cn2CCCCCCC(=O)NO | Histone deacetylase 3 (Homo sapiens, UniProt O15379) | 23
Cc1cccc(Cc2cn(CCCCCCC(=O)NO)c3ccc(-c4c(C)noc4C)cc23)c1 | Histone deacetylase 3 (Homo sapiens, UniProt O15379) | 24
Cc1ccccc1Cc1cn(CCCCCCC(=O)NO)c2ccc(-c3c(C)noc3C)cc12 | Histone deacetylase 3 (Homo sapiens, UniProt O15379) | 50

Task: Look up IC50 for this compound: `Cc1noc(C)c1-c1ccc2c(c1)c(Cc1cccc(C(F)(F)F)c1)cn2CCCCCCC(=O)NO`
Result: 13

Task: // repeat for `Cc1ccc(Cc2cn(CCCCCCC(=O)NO)c3ccc(-c4c(C)noc4C)cc23)cc1` and report
Result: 18

Task: // repeat for `Cc1noc(C)c1-c1ccc2c(c1)c(CCc1ccc(F)cc1)cn2CCCCCC(=O)NO` and report
Result: 17

* * *

# pIC50 annotations
experimental_system: Histone deacetylase 1 (Homo sapiens, UniProt Q13547)
Sequence (Q13547 whole entry): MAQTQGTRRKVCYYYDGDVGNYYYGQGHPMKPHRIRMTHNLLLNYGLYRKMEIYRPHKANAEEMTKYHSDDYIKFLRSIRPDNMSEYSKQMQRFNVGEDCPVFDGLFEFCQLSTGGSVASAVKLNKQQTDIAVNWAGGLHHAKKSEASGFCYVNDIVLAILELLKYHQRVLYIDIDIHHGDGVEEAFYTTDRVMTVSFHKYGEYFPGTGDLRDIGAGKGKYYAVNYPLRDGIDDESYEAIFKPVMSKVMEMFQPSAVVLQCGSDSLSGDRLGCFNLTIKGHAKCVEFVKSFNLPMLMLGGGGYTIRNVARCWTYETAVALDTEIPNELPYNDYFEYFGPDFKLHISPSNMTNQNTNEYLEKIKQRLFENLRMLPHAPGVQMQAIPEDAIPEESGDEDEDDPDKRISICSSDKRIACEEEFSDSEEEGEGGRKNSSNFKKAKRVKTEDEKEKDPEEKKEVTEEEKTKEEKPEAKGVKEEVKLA
assay_details: Inhibition of human recombinant HDAC1 expressed in baculovirus by using Boc-L-Lys(Ac)-AMC as substrate measured after 24 hrs by fluorescence based analysis
pIC50 field: float, defined as -log10 of concentration (mol/L).

query_smiles | pIC50
O=C(CCCCCCNCc1ccc2ccccc2c1)NO | 7.41
O=C(CCCCCCN(Cc1ccc2ccccc2c1)Cc1ccc2ccccc2c1)NO | 5.96
COc1ccc(CNCCCCCCC(=O)NO)cc1OC | 6.68

For the next question, use this compound.
Task: Look up pIC50 for this compound: `O=C(CCCCCCN(Cc1cc2ccccc2[nH]1)Cc1cc2ccccc2[nH]1)NO`
Result: 6.47

* * *

experimental_system: Histone deacetylase 1 (Homo sapiens)
assay_details: Inhibition of HDAC1 (unknown origin)
measured_parameter: IC50

query_smiles | experimental_value
Nc1ccccc1NC(=O)c1ccc(-c2cn(CCc3ccsc3)nn2)cc1 | > 100000 nM

Task: Look up IC50 for this molecule: `Nc1ccccc1NC(=O)c1ccc(CNc2nc(-c3ccccc3)cs2)cc1`
Result: 930 nM

* * *

experimental_system: Histone deacetylase 8 (Homo sapiens)
Sequence (Q9BY41 whole entry): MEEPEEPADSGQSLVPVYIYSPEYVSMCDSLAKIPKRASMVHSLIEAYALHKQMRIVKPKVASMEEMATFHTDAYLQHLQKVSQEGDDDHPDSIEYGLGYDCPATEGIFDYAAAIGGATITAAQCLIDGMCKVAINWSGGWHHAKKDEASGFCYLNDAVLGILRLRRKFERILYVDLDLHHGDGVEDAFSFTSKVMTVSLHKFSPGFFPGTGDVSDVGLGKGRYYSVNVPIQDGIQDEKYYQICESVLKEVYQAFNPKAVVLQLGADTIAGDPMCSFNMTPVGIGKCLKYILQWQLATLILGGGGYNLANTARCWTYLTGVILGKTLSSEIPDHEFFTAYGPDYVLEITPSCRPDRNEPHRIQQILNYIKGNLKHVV
assay_details: Inhibition of HDAC8 (unknown origin)
measured_parameter: IC50 (µM)
Respond with the bare value in µM.

Task: Look up IC50 for this molecule: `Nc1ccccc1NC(=O)c1ccc(CNc2nc(-c3ccccc3)cs2)cc1`
Result: 4.1

* * *

experimental_system: Histone deacetylase 8 (Homo sapiens)
Sequence (Q9BY41 whole entry): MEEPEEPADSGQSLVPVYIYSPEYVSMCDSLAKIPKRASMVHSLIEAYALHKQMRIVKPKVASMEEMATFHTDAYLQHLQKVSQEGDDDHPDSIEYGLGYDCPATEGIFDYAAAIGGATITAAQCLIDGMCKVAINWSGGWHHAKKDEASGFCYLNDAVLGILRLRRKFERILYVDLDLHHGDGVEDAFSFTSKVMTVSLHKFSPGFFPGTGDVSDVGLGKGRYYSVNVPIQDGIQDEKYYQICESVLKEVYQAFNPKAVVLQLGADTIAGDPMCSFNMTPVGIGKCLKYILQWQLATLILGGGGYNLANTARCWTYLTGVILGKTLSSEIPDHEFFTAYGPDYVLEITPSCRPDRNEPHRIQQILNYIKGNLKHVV
assay_details: Inhibition of human recombinant HDAC8 expressed in Escherichia coli BL21 (DE3) cells by using Boc-L-Lys(Ac)-AMC as substrate measured after 24 hrs by fluorescence based analysis
# IC50 annotations
Respond with the bare value in nM.

Here are 9 compounds together with their reported answers.
query_smiles | IC50 [nM]
O=C(CCCCCCNCc1ccc2ccccc2c1)NO | 320
O=C(CCCCCCNCc1ccc(F)cc1)NO | 1700
O=C(CCCCCCN(Cc1cc2ccccc2[nH]1)Cc1cc2ccccc2[nH]1)NO | 4600
O=C(CCCCCCN(Cc1ccc(-c2ccccc2)s1)Cc1ccc(-c2ccccc2)s1)NO | 4100
Cc1cc(CNCCCCCCC(=O)NO)ccc1F | 2800
O=C(CCCCCCNCc1ccc(-c2ccccc2)s1)NO | 550
O=C(CCCCCCN(Cc1ccc2ccccc2c1)Cc1ccc2ccccc2c1)NO | 5400
O=C(CCCCCCNCc1ccc([N+](=O)[O-])cc1)NO | 2100
O=C(CCCCCCNCc1cc2ccccc2[nH]1)NO | 620

Task: Look up IC50 for this compound: `COc1ccc(CNCCCCCCC(=O)NO)cc1OC`
Result: 1800

* * *

experimental_system: Histone deacetylase 1 (Homo sapiens, UniProt Q13547)
assay_details: Inhibition of human recombinant HDAC1 at 50 uM measured after 24 hrs by fluorometric analysis
measured_parameter: pIC50
pIC50 field: float, defined as -log10 of concentration (mol/L).

Task: Look up pIC50 for this compound: `Nc1ccc(F)cc1NC(=O)c1cc2ccccc2o1`
Result: 5.92

* * *

# pIC50 annotations
experimental_system: Histone deacetylase 2 (Homo sapiens)
assay_details: Inhibition of human recombinant HDAC2 expressed in baculovirus by using Boc-L-Lys(Ac)-AMC as substrate measured after 24 hrs by fluorescence based analysis
pIC50 field: float, defined as -log10 of concentration (mol/L).

Here are 2 molecules together with their reported answers.
query_smiles | experimental_value
O=C(CCCCCCNCc1ccc(F)cc1)NO | 5.82
O=C(CCCCCCN(Cc1ccc2ccccc2c1)Cc1ccc2ccccc2c1)NO | 5.38

Task: Look up pIC50 for this molecule: `Cc1cc(CNCCCCCCC(=O)NO)ccc1F`
Result: 6.10

Task: // repeat for `COc1ccc(CNCCCCCCC(=O)NO)cc1OC` and report
Result: 5.74

Task: // repeat for `O=C(CCCCCCNCc1cc2ccccc2[nH]1)NO` and report
Result: 6.59

Task: // repeat for `O=C(CCCCCCNCc1ccc([N+](=O)[O-])cc1)NO` and report
Result: 5.54

Task: // repeat for `O=C(CCCCCCNCc1ccc2ccccc2c1)NO` and report
Result: 6.49

* * *

experimental_system: Histone deacetylase
assay_details: Inhibition of human HDAC using human HeLa cell nuclear extract measured after 60 mins by fluorescence assay
Type: subcellular, Nucleus
# if measured IC50 < 10 nM: Yes  # else: No

query_smiles | experimental_system | class_name
O=C(NO)c1ccc(NC(=O)[C@@H](NC(=O)c2cccc(Br)c2)c2ccccc2)cc1 | Histone deacetylase | No
O=C(NO)c1ccc(NC(=O)[C@@H](NS(=O)(=O)c2cccc3ccccc23)c2ccccc2)cc1 | Histone deacetylase | No
CN(C)c1cccc2c(S(=O)(=O)N[C@H](C(=O)Nc3ccc(C(=O)NO)cc3)c3ccccc3)cccc12 | Histone deacetylase | Yes
O=C(NO)c1ccc(NC(=O)[C@@H](NC(=O)c2ccc3ccccc3c2)c2ccccc2)cc1 | Histone deacetylase | No

Task: Could you please tell me whether IC50 recorded for `O=C(NO)c1ccc(NC(=O)[C@@H](NC(=O)c2ccc(Cl)cc2)c2ccccc2)cc1` is less than 10 nM?
Result: No
